subject of test: T1, fibrinogen (Homo sapiens, UniProt P02671)
T1 chain 1: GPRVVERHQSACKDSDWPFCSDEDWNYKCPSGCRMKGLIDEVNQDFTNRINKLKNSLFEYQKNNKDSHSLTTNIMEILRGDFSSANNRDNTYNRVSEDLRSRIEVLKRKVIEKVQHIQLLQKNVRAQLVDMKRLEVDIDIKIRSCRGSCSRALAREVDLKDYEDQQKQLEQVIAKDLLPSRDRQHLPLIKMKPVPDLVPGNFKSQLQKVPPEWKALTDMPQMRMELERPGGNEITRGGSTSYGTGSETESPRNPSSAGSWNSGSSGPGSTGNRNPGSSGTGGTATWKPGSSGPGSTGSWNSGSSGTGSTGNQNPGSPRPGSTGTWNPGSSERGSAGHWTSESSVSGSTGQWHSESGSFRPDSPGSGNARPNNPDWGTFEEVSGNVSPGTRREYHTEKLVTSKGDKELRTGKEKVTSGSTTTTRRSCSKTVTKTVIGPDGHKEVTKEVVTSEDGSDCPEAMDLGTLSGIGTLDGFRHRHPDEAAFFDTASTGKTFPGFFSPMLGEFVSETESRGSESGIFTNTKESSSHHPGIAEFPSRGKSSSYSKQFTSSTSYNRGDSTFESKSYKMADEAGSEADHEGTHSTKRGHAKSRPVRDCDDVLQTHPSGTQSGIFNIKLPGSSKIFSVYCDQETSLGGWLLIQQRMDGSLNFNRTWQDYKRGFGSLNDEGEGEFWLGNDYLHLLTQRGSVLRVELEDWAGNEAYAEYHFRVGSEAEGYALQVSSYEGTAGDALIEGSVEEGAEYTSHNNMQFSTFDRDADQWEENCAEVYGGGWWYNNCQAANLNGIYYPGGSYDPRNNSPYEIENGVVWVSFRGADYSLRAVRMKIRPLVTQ
T1 chain 2: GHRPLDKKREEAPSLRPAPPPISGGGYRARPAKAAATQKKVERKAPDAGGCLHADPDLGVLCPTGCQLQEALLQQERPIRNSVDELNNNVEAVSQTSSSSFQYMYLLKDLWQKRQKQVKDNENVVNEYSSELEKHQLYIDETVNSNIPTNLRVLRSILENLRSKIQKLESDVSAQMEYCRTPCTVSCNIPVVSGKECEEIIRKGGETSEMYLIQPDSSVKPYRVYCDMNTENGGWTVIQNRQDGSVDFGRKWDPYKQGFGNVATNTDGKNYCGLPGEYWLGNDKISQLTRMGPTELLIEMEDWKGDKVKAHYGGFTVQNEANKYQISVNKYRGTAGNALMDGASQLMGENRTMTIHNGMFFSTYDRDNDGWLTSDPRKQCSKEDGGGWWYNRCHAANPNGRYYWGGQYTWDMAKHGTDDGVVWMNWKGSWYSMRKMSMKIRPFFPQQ
T1 chain 3: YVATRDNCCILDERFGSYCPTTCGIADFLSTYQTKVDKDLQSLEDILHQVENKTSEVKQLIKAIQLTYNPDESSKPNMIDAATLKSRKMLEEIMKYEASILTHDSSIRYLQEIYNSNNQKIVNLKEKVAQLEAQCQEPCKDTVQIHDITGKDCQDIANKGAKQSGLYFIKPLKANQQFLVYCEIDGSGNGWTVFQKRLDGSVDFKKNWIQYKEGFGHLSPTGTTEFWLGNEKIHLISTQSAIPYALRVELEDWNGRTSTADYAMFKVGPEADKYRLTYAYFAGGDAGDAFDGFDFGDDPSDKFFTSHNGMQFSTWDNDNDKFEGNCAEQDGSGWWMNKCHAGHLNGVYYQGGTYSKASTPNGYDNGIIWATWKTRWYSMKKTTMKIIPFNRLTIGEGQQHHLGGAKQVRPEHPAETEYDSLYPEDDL
experiment: FP displacement
pKd: −log10 of the molar value.
test readout: pKd

Request the reported pKd associated with WFHCPYDLCHIL [Tn6-1] < 3.70

Ref: paper PMC3310290
